TEST: in vitro
CONDITION DESCRIPTION: human, Caco-2, Caco-2 (cm/sec)
*1 amine or outer side, *2 acyl side, *3 side chain or, on linkers, in order; H or OH if unused. Where a SMILES comes first, the peptide text is derived from it. Bridges are numbered along the chain shown (N, C = ends). [ ]: non-standard residue; d: D form. The star is where a group is joined. hPhe(3-OMe,4-CONHMe) = CNC(=O)c1ccc(CC[C@H](N)C(=O)O)cc1OC; NMeW = CN[C@@H](Cc1c[nH]c2ccccc12)C(=O)O; NMehPhe = CN[C@@H](CCc1ccccc1)C(=O)O; NMeF = CN[C@@H](Cc1ccccc1)C(=O)O; NMeGABA = CN(CCCC(=O)[*:2])[*:1]; NMeI = CC[C@H](C)[C@H](NC)C(=O)O; Butyl(3-Me,3-OH) = CC(C)(O)CC*; NMeD = CN[C@@H](CC(=O)O)C(=O)O; CH2CONHtBu = CC(C)(C)NC(=O)C*; NMeL = CN[C@@H](CC(C)C)C(=O)O; Propyl(2R-OH) = C[C@@H](O)C*; NMeV = CN[C@H](C(=O)O)C(C)C; NMeA = CN[C@@H](C)C(=O)O; Piperidide = C1CCN(*)CC1; Isopentyl = CC(C)CC*; NPrGly = CCCNCC(=O)O; Sar = CNCC(=O)O; tBu = CC(C)(C)*
Reported Papp values for the following compounds.
Respond numerically; units are ×10⁻⁶ cm/s and should not be typed.

The cases that follow already have their Papp on record.
>>> recorded_number("CNC(=O)c1ccc(CC[C@@H]2NC(=O)[C@H](CC(C)C)N(C)C(=O)CN(C)C(=O)[C@H]([C@@H](C)O)NC(=O)[C@H](CC(C)C)N(C)C(=O)[C@H](CC(C)C)NC(=O)[C@H](Cc3ccccc3)N(C)C(=O)[C@@H](C(C)C)NC(=O)C[C@@H](C(=O)N3CCCCC3)NC(=O)[C@H](CC(C)C)N(C)C(=O)[C@H](CC(C)C)N(C)C2=O)cc1OC [AP200] ([dV][NMeF]L[NMeL]T[Sar][NMeL][hPhe(3-OMe,4-CONHMe)][NMeL][NMeL]D-Piperidide; lactam N-11)")
0.88
>>> recorded_number("CC(C)C[C@@H]1NC(=O)[C@H](Cc2ccccc2)N(C)C(=O)[C@H](COC(C)(C)C)NC(=O)[C@H](Cc2ccccc2)N(C)C(=O)[C@H](C)N(C)C(=O)[C@H](CC(C)C)N(C)C(=O)[C@H]2CCCN2C(=O)C[C@@H](C(=O)N2CCCCC2)N(C)C(=O)[C@H](Cc2ccccc2)N(C)C(=O)[C@H]([C@@H](C)O)NC(=O)[C@H](C(C)C)N(C)C1=O [pd219] ([dP][NMeL][NMeA][NMeF]S(tBu)[NMeF]L[NMeV]T[NMeF][NMeD]-Piperidide; lactam N-11)")
1.1
>>> recorded_number("CCCN1CC(=O)N(C)[C@@H](C)C(=O)N[C@H](C(=O)N2CCCCC2)CC(=O)N(C)[C@@H](CC(C)C)C(=O)N[C@@H](Cc2ccccc2)C(=O)N(C)[C@@H](CC(C)C)C(=O)N(C)[C@@H](CC(C)C)C(=O)N[C@@H](COCC(=O)NC(C)(C)C)C(=O)N(C)[C@@H](CCc2ccccc2)C(=O)N(C)[C@@H](CC(C)C)C(=O)N[C@@H]([C@@H](C)O)C1=O [AP15] ([NMeL]F[NMeL][NMeL]S(CH2CONHtBu)[NMehPhe][NMeL]T[NPrGly][NMeA]D-Piperidide; lactam N-11)")
0.86
>>> recorded_number("CC(C)C[C@@H]1NC(=O)[C@H](CC(C)C)N(C)C(=O)[C@H](C)N(C)C(=O)C[C@@H](C(=O)N(C)[C@@H](Cc2ccccc2)C(=O)N[C@@H](C)C(=O)N2CCCCC2)NC(=O)[C@H]([C@@H](C)O)NC(=O)[C@H](CC(C)C)N(C)C(=O)[C@H](Cc2ccccc2)NC(=O)[C@H](Cc2ccccc2)N(C)C(=O)[C@H](CC(C)C)N(C)C1=O [pd218] ([NMeA][NMeL]L[NMeL][NMeF]F[NMeL]TD[NMeF]A-Piperidide; lactam N-9)")
1.1
>>> recorded_number("CC(C)C[C@H]1C(=O)N(C)[C@@H](CC(C)C)C(=O)N(C)[C@@H](Cc2c[nH]c3ccccc23)C(=O)N[C@@H]([C@@H](C)O)C(=O)N(C)[C@@H](C)C(=O)N(C)[C@@H](CC(C)C)C(=O)N[C@H](C(=O)N2CCCCC2)CC(=O)N(C)[C@@H](C)C(=O)N(C)[C@@H](CC(C)C)C(=O)N(C)[C@@H](CC(C)C)C(=O)N[C@@H](C)C(=O)N1C [pd105] ([NMeA][NMeL][NMeL]A[NMeL][NMeL][NMeW]T[NMeA][NMeL]D-Piperidide; lactam N-11)")
0.28
>>> recorded_number("CC[C@H](C)[C@H]1C(=O)N[C@@H](C(C)C)C(=O)N(C)CC(=O)N(C)[C@@H](CC(C)C)C(=O)N[C@H](C(=O)N2CCCCC2)CC(=O)N(C)[C@@H](C)C(=O)N[C@@H](COC[C@@H](C)O)C(=O)N(C)[C@@H](CC(C)C)C(=O)N(C)[C@@H](Cc2ccccc2)C(=O)N[C@@H](CC(C)C)C(=O)N(C)[C@@H](Cc2ccccc2)C(=O)N1C [AP86] ([NMeA]S(Propyl(2R-OH))[NMeL][NMeF]L[NMeF][NMeI]V[Sar][NMeL]D-Piperidide; lactam N-11)")
3.7

Query block: Which measured Papp value corresponds to CC(C)CCOC[C@@H]1NC(=O)[C@H](Cc2ccccc2)N(C)C(=O)[C@H](Cc2ccccc2)N(C)C(=O)[C@H](COCCC(C)(C)O)NC(=O)[C@H](CC(C)C)N(C)C(=O)CCCN(C)C(=O)C[C@@H](C(=O)N2CCCCC2)NC(=O)[C@H](CC(C)C)N(C)C(=O)[C@H](CC(C)C)N(C)C(=O)[C@H]([C@@H](C)O)NC(=O)[C@H](C(C)C)N(C)C1=O [AP53] ([NMeGABA][NMeL]S(Butyl(3-Me,3-OH))[NMeF][NMeF]S(Isopentyl)[NMeV]T[NMeL][NMeL]D-Piperidide; lactam N-11) ?
Result block: 0.74

Query block: Another compound to look at: CC(C)C[C@@H]1NC(=O)[C@H](Cc2ccccc2)N(C)C(=O)[C@@H]2CCCN2C(=O)C[C@@H](C(=O)N2CCCCC2)NC(=O)[C@H](Cc2ccccc2)N(C)C(=O)[C@H](Cc2ccccc2)N(C)C(=O)[C@H](COC(C)(C)C)NC(=O)[C@H](CC(C)C)N(C)C(=O)CN(C)C(=O)[C@H]([C@@H](C)O)NC(=O)[C@H](CC(C)C)N(C)C1=O [pd203] (P[NMeF]L[NMeL]T[Sar][NMeL]S(tBu)[NMeF][NMeF]D-Piperidide; lactam N-11)
Result block: 2.1
